# TEST TARGET: Melanocortin receptor 3 (Homo sapiens, UniProt P41968)
# Sequence (P41968 whole entry): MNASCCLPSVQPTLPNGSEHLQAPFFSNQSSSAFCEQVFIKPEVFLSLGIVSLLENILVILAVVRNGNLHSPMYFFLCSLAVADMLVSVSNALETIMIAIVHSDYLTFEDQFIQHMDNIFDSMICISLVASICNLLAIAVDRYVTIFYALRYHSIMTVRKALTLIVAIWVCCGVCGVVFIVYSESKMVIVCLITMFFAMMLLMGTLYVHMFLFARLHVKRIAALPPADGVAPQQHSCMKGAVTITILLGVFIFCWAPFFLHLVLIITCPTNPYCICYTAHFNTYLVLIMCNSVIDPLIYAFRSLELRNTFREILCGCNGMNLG
# EXPERIMENTAL PROTOCOL: Agonist activity at human MC3R
Listed here: items and their measured EC50.
Please make sure the unit comes right after the number.

Known results for compounds:
| STRUCTURE | TEST TARGET | EC50 |
| --- | --- | --- |
| CNC(=O)[C@H](Cc1ccc2ccccc2c1)N1CCN(C(=O)[C@H](N)Cc2ccc(F)cc2)[C@@H](CCCN=C(N)N)C1=O | Melanocortin receptor 3 (Homo sapiens, UniProt P41968) | 37 nM |
| CNC(=O)[C@H](Cc1ccc2ccccc2c1)NC(=O)[C@H](CCCN=C(N)N)NC(=O)[C@H](N)Cc1ccc(F)cc1 | Melanocortin receptor 3 (Homo sapiens, UniProt P41968) | 20000 nM |
| CNC(=O)[C@H](Cc1ccc2ccccc2c1)N1CCN(C(=O)[C@@H](Cc2ccc(F)cc2)NC(=O)[C@H](Cc2cnc[nH]2)NC(C)=O)[C@@H](CCCN=C(N)N)C1=O | Melanocortin receptor 3 (Homo sapiens, UniProt P41968) | 6 nM |
| CNC(=O)[C@H](Cc1ccc2ccccc2c1)N1CCN(C(=O)[C@@H](Cc2ccc(F)cc2)NC(C)=O)[C@@H](CCCN=C(N)N)C1=O | Melanocortin receptor 3 (Homo sapiens, UniProt P41968) | 10 nM |

Let's switch to this compound now.
Req: Any idea what EC50 came out for CNC(=O)[C@H](Cc1ccc2ccccc2c1)N1CCN(C(=O)[C@@H](Cc2ccc(F)cc2)NC(=O)[C@H](Cc2ccc(O)cc2)NC(C)=O)[C@@H](CCCN=C(N)N)C1=O on Melanocortin receptor 3 (Homo sapiens, UniProt P41968)?
Resp: 2 nM

###

Measured Ki on Melanocortin receptor 4 (Homo sapiens, UniProt P32245) follows.
Sequence (P32245 whole entry): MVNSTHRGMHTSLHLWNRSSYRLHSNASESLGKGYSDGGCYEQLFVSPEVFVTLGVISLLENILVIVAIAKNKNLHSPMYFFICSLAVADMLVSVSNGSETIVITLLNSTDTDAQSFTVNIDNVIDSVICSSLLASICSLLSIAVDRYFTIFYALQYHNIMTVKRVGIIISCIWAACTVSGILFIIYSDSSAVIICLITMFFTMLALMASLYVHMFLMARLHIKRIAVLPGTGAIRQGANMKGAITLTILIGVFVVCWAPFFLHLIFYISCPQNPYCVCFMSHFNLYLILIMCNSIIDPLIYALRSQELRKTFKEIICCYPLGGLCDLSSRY
Answer format: numeric, nM implied, no suffix.

Known results for compounds:
| STRUCTURE | Ki, nM |
| --- | --- |
| CNC(=O)[C@H](Cc1ccc2ccccc2c1)N1CCN(C(=O)[C@@H](Cc2ccc(F)cc2)NC(=O)[C@H](Cc2ccc(O)cc2)NC(C)=O)[C@@H](CCCN=C(N)N)C1=O | 0.4 |
| CNC(=O)[C@H](Cc1ccc2ccccc2c1)N1CCN(C(=O)CCc2ccc(F)cc2)[C@@H](CCCN=C(N)N)C1=O | 5.3 |
| CNC(=O)[C@H](Cc1ccc2ccccc2c1)N1CCN(C(=O)[C@H](N)Cc2ccccc2)[C@@H](CCCN=C(N)N)C1=O | 5.7 |

Let's switch to this compound now.
Req: Any idea what Ki came out for CNC(=O)[C@H](Cc1ccc2ccccc2c1)NC(=O)[C@H](CCCN=C(N)N)NC(=O)[C@H](N)Cc1ccc(F)cc1 on Melanocortin receptor 4 (Homo sapiens, UniProt P32245)?
Resp: 225

###

Measured pKi on Melanocortin receptor 4 (Homo sapiens, UniProt P32245) follows.
Reminder that pKi means the negative base-10 logarithm of the concentration expressed in mol/L.

Known results for compounds:
| STRUCTURE | TEST TARGET | pKi |
| --- | --- | --- |
| CNC(=O)[C@H](Cc1ccc2ccccc2c1)N1CCN(C(=O)[C@H](N)Cc2ccc(F)cc2)[C@@H](CCCNC(N)=O)C1=O | Melanocortin receptor 4 (Homo sapiens, UniProt P32245) | 6.58 |
| CNC(=O)[C@H](Cc1ccc2ccccc2c1)N1CCN(C(=O)[C@H](N)Cc2ccc(F)cc2)[C@@H](CCCN=C(N)N)C1=O | Melanocortin receptor 4 (Homo sapiens, UniProt P32245) | 8.15 |

Let's switch to this compound now.
Req: Item CNC(=O)[C@H](Cc1ccc2ccccc2c1)N1CCN(C(=O)[C@@H](Cc2ccc(F)cc2)NC(=O)[C@H](CCC(N)=O)NC(C)=O)[C@@H](CCCN=C(N)N)C1=O has what recorded pKi?
Resp: 8.96

###

Measured pKi on UniProt P41968 follows.
Reminder that pKi means the negative base-10 logarithm of the concentration expressed in mol/L.

Known results for molecules:
| STRUCTURE | pKi |
| --- | --- |
| CNC(=O)[C@H](Cc1ccc2ccccc2c1)N1CCN(C(=O)[C@@H](Cc2ccc(F)cc2)NC(=O)[C@H](CCC(N)=O)NC(C)=O)[C@@H](CCCN=C(N)N)C1=O | 8.48 |
| CNC(=O)[C@H](Cc1ccc2ccccc2c1)N1CCN(C(=O)[C@@H](Cc2ccc(F)cc2)NC(=O)[C@H](Cc2ccc(O)cc2)NC(C)=O)[C@@H](CCCN=C(N)N)C1=O | 8.96 |

Req: Any idea what pKi came out for CNC(=O)[C@H](Cc1ccc2ccccc2c1)N1CCN(C(=O)[C@H](N)Cc2ccc(F)cc2)[C@@H](CCCNC(N)=O)C1=O on UniProt P41968?
Resp: 6.34

Req: Any idea what pKi came out for CNC(=O)[C@H](Cc1ccc2ccccc2c1)N1CCN(C(=O)[C@@H](Cc2ccc(F)cc2)NC(=O)[C@H](Cc2cnc[nH]2)NC(C)=O)[C@@H](CCCN=C(N)N)C1=O on UniProt P41968?
Resp: 7.46

Req: Any idea what pKi came out for CNC(=O)[C@H](Cc1ccc2ccccc2c1)N1CCN(C(=O)[C@@H](Cc2ccccc2)NC(=O)[C@H](Cc2c[nH]cn2)NC(C)=O)[C@@H](CCCN=C(N)N)C1=O on UniProt P41968?
Resp: 9.00

Req: Any idea what pKi came out for CNC(=O)[C@H](Cc1ccc2ccccc2c1)N1CCN(C(=O)[C@@H](Cc2ccccc2)NC(=O)[C@H](Cc2ccc(O)cc2)NC(C)=O)[C@@H](CCCN=C(N)N)C1=O on UniProt P41968?
Resp: 9.00

###

# TEST TARGET: UniProt:Q01726
# EXPERIMENTAL PROTOCOL: Agonist activity at human MC1R
READOUT KIND: pEC50
Reminder that pEC50 means the negative base-10 logarithm of the concentration expressed in mol/L.

| COMPOUND | pEC50 |
| --- | --- |
| CNC(=O)[C@H](Cc1ccc2ccccc2c1)N1CCN(C(=O)[C@H](N)Cc2ccccc2)[C@@H](CCCN=C(N)N)C1=O | 6.28 |

Req: Any idea what pEC50 came out for CNC(=O)[C@H](Cc1ccc2ccccc2c1)N1CCN(C(=O)[C@@H](Cc2ccc(F)cc2)NC(=O)[C@H](Cc2ccc(O)cc2)NC(C)=O)[C@@H](CCCN=C(N)N)C1=O on UniProt:Q01726?
Resp: 7.52

###

# TEST TARGET: Melanocyte-stimulating hormone receptor (Homo sapiens)
# Sequence (Q01726 whole entry): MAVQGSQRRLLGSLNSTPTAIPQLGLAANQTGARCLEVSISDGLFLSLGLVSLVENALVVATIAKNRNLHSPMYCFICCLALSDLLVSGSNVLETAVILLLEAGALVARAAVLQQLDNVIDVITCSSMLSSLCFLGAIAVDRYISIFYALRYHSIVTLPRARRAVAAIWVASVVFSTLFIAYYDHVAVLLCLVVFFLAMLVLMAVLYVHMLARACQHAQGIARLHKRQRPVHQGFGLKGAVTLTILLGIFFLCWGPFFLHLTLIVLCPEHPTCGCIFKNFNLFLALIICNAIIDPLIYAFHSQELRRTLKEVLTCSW
pKi: −log10 of the molar value.
Outcome: label 1 for pKi of at least 6; label 0 for anything lower.

Study these solved cases before continuing.
| STRUCTURE | TEST TARGET | CLASS NAME |
| --- | --- | --- |
| CNC(=O)[C@H](Cc1ccc2ccccc2c1)N1CCN(C(=O)[C@@H](Cc2ccc(F)cc2)NC(=O)[C@H](CCC(N)=O)NC(C)=O)[C@@H](CCCN=C(N)N)C1=O | Melanocyte-stimulating hormone receptor (Homo sapiens) | label 1 |
| CNC(=O)[C@H](Cc1ccc2ccccc2c1)NC(=O)[C@H](CCCN=C(N)N)NC(=O)[C@H](N)Cc1ccc(F)cc1 | Melanocyte-stimulating hormone receptor (Homo sapiens) | label 0 |
| CNC(=O)[C@H](Cc1ccc2ccccc2c1)N1CCN(C(=O)[C@H](N)Cc2ccc(F)cc2)[C@@H](CCCNC(N)=O)C1=O | Melanocyte-stimulating hormone receptor (Homo sapiens) | label 0 |
| CNC(=O)[C@H](Cc1ccc2ccccc2c1)N1CCN(C(=O)[C@@H](Cc2ccccc2)NC(=O)[C@H](Cc2c[nH]cn2)NC(C)=O)[C@@H](CCCN=C(N)N)C1=O | Melanocyte-stimulating hormone receptor (Homo sapiens) | label 1 |

Okay, now this compound:
Req: Assess whether reported pKi for CNC(=O)[C@H](Cc1ccc2ccccc2c1)N1CCN(C(=O)[C@H](N)Cc2ccc(F)cc2)[C@@H](CCNC(N)=O)C1=O sits at 6 or higher.
Resp: label 0

###

# TEST TARGET: Melanocortin receptor 3 (Homo sapiens, UniProt P41968)
# EXPERIMENTAL PROTOCOL: Binding affinity to human MC3R
READOUT KIND: pKi
Reminder that pKi means the negative base-10 logarithm of the concentration expressed in mol/L.

Known results for molecules:
| MOLECULE | pKi |
| --- | --- |
| CNC(=O)[C@H](Cc1ccc2ccccc2c1)N1CCN(C(=O)[C@@H](Cc2ccc(F)cc2)NC(=O)C2Cc3ccccc3CN2)[C@@H](CCCN=C(N)N)C1=O (some centres undefined) | 6.45 |
| CNC(=O)[C@H](Cc1ccc2ccccc2c1)N1CCN(C(=O)CCc2ccc(F)cc2)[C@@H](CCCN=C(N)N)C1=O | 6.69 |
| CNC(=O)[C@H](Cc1ccc2ccccc2c1)N1CCN(C(=O)[C@H](N)Cc2ccc(F)cc2)[C@@H](CCCN=C(N)N)C1=O | 7.12 |

Req: Any idea what pKi came out for CNC(=O)[C@H](Cc1ccc2ccccc2c1)N1CCN(C(=O)[C@@H](Cc2ccc(F)cc2)NC(C)=O)[C@@H](CCCN=C(N)N)C1=O on Melanocortin receptor 3 (Homo sapiens, UniProt P41968)?
Resp: 8.15
